B1: mRNA-splicing (parent)
chain: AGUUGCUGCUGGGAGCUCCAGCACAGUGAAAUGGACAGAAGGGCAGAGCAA

variants of: B1; test: exon inclusion enrichment index; higher = more inclusion; WT1 exon 5 minigene, HEK293
Given measured exon inclusion enrichment index, output Condition met if it is greater than or equal to 1 and Condition not met if not.

Entry AGUUCACACAGGGACCUCCAGCACAGUGAAAUGGACAGAAGGGCAGAGCAA [G5C C6A U7C G8A U10A G15C] : is its exon inclusion enrichment index no less than 1?
Condition not met

Entry AGUUAGGGAUGGGAGCUCCAGCACAGCUAAAUGGACAGAAGGGCAGAGCAA [G5A C6G U7G C9A U27C G28U] : is its exon inclusion enrichment index no less than 1?
Condition not met

Entry AGUUCGCGCCGGGAGCUCCAGCACAGUAAAAUGGACAGAAGGGCAGAGCAA [G5C C6G U7C U10C G28A] : is its exon inclusion enrichment index no less than 1?
Condition met

Entry AGUUUCUUUUGGGAGCUCCAGCCCAGUGAAAUGGACAGAAGGGCAGAGCAA [G5U G8U C9U A23C] : is its exon inclusion enrichment index no less than 1?
Condition not met

Entry AGUUCGCGCCGGGAGCUCCAGCACAGUGAGGUGGACAGAAGGGCAGAGCAA [G5C C6G U7C U10C A30G A31G] : is its exon inclusion enrichment index no less than 1?
Condition met

Entry AGUUUCUUUUGGGAGCUCCACUACAGUGAAAUGGACAGAAGGGCAGAGCAA [G5U G8U C9U G21C C22U] : is its exon inclusion enrichment index no less than 1?
Condition not met

Entry AGUUUCUUUUGGGAGCUCCAGCACAAUGAAAUGGACAGAAGGGCAGAGCAA [G5U G8U C9U G26A] : is its exon inclusion enrichment index no less than 1?
Condition not met

Entry AGUUCACACAGGGAGCUCCAGCACAGUGAAAUGAUCAGAAGGGCAGAGCAA [G5C C6A U7C G8A U10A G34A A35U] : is its exon inclusion enrichment index no less than 1?
Condition not met

Entry AGUUGACGACGGGAGCUCCAGCCCAGUGAAAUGGACAGAAGGGCAGAGCAA [C6A U7C C9A U10C A23C] : is its exon inclusion enrichment index no less than 1?
Condition met

Entry AGUUAGGGCGGGGAGCUCCAGCACAGUGAAAUGGACAGAAGGGCAGAGCAA [G5A C6G U7G U10G] : is its exon inclusion enrichment index no less than 1?
Condition not met

Entry AGUUCUUCUAUGGAGCUCCAGCACAGUGAAAUGGACAGAAGGGCAGAGCAA [G5C C6U G8C C9U U10A G11U] : is its exon inclusion enrichment index no less than 1?
Condition not met
